Ref: ChEMBL document CHEMBL4689842

# System: U2OS
# experiment-notes: Multiplex assay against U2OS
# Type: toxicity, cell-based
# assay-conditions: human, 12 h, 1 µM, compound concentration 1 uM, replicate 1
quantity-name: Population Mitotic Cells (%)

compound: CCOc1ccn(-c2ccc(F)cc2)c(=O)c1C(=O)Nc1ccc(Oc2ccnc(N)c2Cl)c(F)c1
measured: 58
--
compound: CC(Cc1ccc(O)c(O)c1)C(C)Cc1ccc(O)c(O)c1 (stereo not given) [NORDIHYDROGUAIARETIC ACID]
measured: 35
--
compound: Cc1c(P(=S)(c2ccccc2)c2ccccc2)n2ccccc2[n+]1C/C=C/c1ccccc1.[Br-]
measured: 45
--
compound: Oc1cccc(-c2nc(N3CCOCC3)c3oc4ncccc4c3n2)c1
measured: 26
--
compound: Cc1c(Nc2ccc(S(=O)(=O)N3CCN(C)CC3)cc2F)nc2ccc(-c3cnn(C4CC4)c3)cn2c1=O
measured: 87
